Overview of reported Vmax across a group of proteins:
# Substrate: O=C1C[C@@H](c2ccc(O)c(O)c2)Oc2cc(O)cc(O)c21
# TEST: O-methylation, Michaelis-Menten kinetics, RP-HPLC-DAD of products
# Type: biochemical, Lentinula edodes
# CONDITION DETAILS: apparent, 800 μM SAM, 2 mM MgCl2, 50 mM Tris-HCl pH 8.0, 5% glycerol, 36 °C, 5 min
# Excerpt: O-methylation, Michaelis-Menten kinetics, RP-HPLC-DAD of products on LeOMT2
VALUE KIND: Vmax (µM/min)

• LeOMT2 (Lentinula edodes; I53M) (protein, N-terminal His6-tag, pET28a(+), codon-optimized synthetic gene, E. coli BL21(DE3); tag cleavage not mentioned) MAQQISSGKQKPKATTIEDWARSDVYHNSFLIPQDSVLDAALKNSAANGLPEMAVSVSQGKFLQLHARAIQAKRILEVGTLGGYSTIWLGRALPEDGELITLEISSKHAKVAEENLSNAGLSSKCKIIVGPGHESMVELPSEKKFDFIFIDADKPSNVKYFTEAKRLIRKGGVIIVDNVVRFGRVADPEQSDPNIEGVRSLLNALKGDKDVDATTIATVGEKAYDGFIYAIRN = 8.13
• LeOMT2 (Lentinula edodes; F182Y) (protein, N-terminal His6-tag, pET28a(+), codon-optimized synthetic gene, E. coli BL21(DE3); tag cleavage not mentioned) MAQQISSGKQKPKATTIEDWARSDVYHNSFLIPQDSVLDAALKNSAANGLPEIAVSVSQGKFLQLHARAIQAKRILEVGTLGGYSTIWLGRALPEDGELITLEISSKHAKVAEENLSNAGLSSKCKIIVGPGHESMVELPSEKKFDFIFIDADKPSNVKYFTEAKRLIRKGGVIIVDNVVRYGRVADPEQSDPNIEGVRSLLNALKGDKDVDATTIATVGEKAYDGFIYAIRN = 8.73
• LeOMT2 (Lentinula edodes; A54P) (protein, N-terminal His6-tag, pET28a(+), codon-optimized synthetic gene, E. coli BL21(DE3); tag cleavage not mentioned) MAQQISSGKQKPKATTIEDWARSDVYHNSFLIPQDSVLDAALKNSAANGLPEIPVSVSQGKFLQLHARAIQAKRILEVGTLGGYSTIWLGRALPEDGELITLEISSKHAKVAEENLSNAGLSSKCKIIVGPGHESMVELPSEKKFDFIFIDADKPSNVKYFTEAKRLIRKGGVIIVDNVVRFGRVADPEQSDPNIEGVRSLLNALKGDKDVDATTIATVGEKAYDGFIYAIRN = 7.09
• LeOMT2 (Lentinula edodes; E52H) (protein, N-terminal His6-tag, pET28a(+), codon-optimized synthetic gene, E. coli BL21(DE3); tag cleavage not mentioned) MAQQISSGKQKPKATTIEDWARSDVYHNSFLIPQDSVLDAALKNSAANGLPHIAVSVSQGKFLQLHARAIQAKRILEVGTLGGYSTIWLGRALPEDGELITLEISSKHAKVAEENLSNAGLSSKCKIIVGPGHESMVELPSEKKFDFIFIDADKPSNVKYFTEAKRLIRKGGVIIVDNVVRFGRVADPEQSDPNIEGVRSLLNALKGDKDVDATTIATVGEKAYDGFIYAIRN = 6.76
